Test system: trypsin
Experiment: Tryptic digestion assay
Assay type: in vitro ADME
Conditions: pH 8
Bridge positions count the residues as written; N and C are the ends.
# half-life at 150 μM values compiled below
REPORTED PROPERTY: half-life at 150 μM (min)

Ac-GVNFGVVLFRGELAALKAKLAALKAY-NH2 (N-terminus assumed) [AY-VE-dN] = 6.3
Ac-ELAALEAELAALEGVNFGVVLFRGELAALKAKLAALKAY-NH2 (N-terminus assumed) [AY-VE-dS] = 56
Ac-CAAELAALEAELAALEGVNFGVVLFRGELAALKAKLAALKAYC-NH2 (disulfide 1-43; N-terminus assumed) [AY-VE] = 190

All values here come from paper PMC9257745.
